All values here come from PubChem BioAssay (NCATS).

- Test system: DIV30
- EXPERIMENT_NOTES: qHTS profiling for inhibitors of Plasmodium falciparum proliferation (AID 504749); further: nearly all actives have a fitted effect of over 60% in size
- STATED_CONDITIONS: P. falciparum in erythrocytes, SYBR Green DNA, 72 h; series mostly up to 28.7 µM
Inconclusive results are not listed. Calls of active or inactive are those of the source. The call rests on the fitted dose curve; in most records, active means well fitted inhibition curve with a large enough effect; inconclusive means small, poorly fitted or top-dose-only effect; inactive means flat fitted curve, though single readings scatter.
In this exercise, the only acceptable responses are active, inactive

Check out these entries, answers already filled in.
CCC(=O)O[C@]1(C(=O)CCl)[C@@H](C)CC2C3C[C@H](F)C4=CC(=O)C=CC4(C)[C@@]3(F)C(O)CC21C (some centres undefined)
active
CN1[C@@H]2CC[C@@H]1CC(OC(=O)[C@H](CO)c1ccccc1)C2 (some centres undefined)
inactive
OCC1O[C@@H](O[C@@H]2C(CO)OC(O)C(O)C2O)C(O)C(O)C1O (some centres undefined)
inactive
C/C(=C(/CCO)SS/C(CCO)=C(\C)N(C=O)Cc1cnc(C)nc1N)N(C=O)Cc1cnc(C)nc1N
inactive
CCC(C(=O)C(C)C(O)C(C)CCc1ccc(C)c(O)c1C(=O)O)C1OC(CC)(C2CC[C@@](O)(CC)C(C)O2)CC1C (some centres undefined)
active

// query What outcome does the record of this test show for C=CC1CN2CCC1CC2[C@@H](O)c1ccnc2ccc(OC)cc12 (some centres undefined) ?
// result active

// query Likewise for Cc1c(C)c2c(c(C)c1O)CCC(C)(CCCC(C)CCCC(C)CCCC(C)C)O2 (centres undefined) ?
// result inactive

// query Likewise for `CN(C)CC/C=C1\c2ccccc2COc2ccc(CC(=O)O)cc21` ?
// result inactive

// query Likewise for O=c1[nH]c(=O)n(C2C[C@H](O)[C@@H](CO)O2)cc1C(F)(F)F (some centres undefined) ?
// result inactive
